# system_name: UniProt O95239
# Sequence (O95239 whole entry): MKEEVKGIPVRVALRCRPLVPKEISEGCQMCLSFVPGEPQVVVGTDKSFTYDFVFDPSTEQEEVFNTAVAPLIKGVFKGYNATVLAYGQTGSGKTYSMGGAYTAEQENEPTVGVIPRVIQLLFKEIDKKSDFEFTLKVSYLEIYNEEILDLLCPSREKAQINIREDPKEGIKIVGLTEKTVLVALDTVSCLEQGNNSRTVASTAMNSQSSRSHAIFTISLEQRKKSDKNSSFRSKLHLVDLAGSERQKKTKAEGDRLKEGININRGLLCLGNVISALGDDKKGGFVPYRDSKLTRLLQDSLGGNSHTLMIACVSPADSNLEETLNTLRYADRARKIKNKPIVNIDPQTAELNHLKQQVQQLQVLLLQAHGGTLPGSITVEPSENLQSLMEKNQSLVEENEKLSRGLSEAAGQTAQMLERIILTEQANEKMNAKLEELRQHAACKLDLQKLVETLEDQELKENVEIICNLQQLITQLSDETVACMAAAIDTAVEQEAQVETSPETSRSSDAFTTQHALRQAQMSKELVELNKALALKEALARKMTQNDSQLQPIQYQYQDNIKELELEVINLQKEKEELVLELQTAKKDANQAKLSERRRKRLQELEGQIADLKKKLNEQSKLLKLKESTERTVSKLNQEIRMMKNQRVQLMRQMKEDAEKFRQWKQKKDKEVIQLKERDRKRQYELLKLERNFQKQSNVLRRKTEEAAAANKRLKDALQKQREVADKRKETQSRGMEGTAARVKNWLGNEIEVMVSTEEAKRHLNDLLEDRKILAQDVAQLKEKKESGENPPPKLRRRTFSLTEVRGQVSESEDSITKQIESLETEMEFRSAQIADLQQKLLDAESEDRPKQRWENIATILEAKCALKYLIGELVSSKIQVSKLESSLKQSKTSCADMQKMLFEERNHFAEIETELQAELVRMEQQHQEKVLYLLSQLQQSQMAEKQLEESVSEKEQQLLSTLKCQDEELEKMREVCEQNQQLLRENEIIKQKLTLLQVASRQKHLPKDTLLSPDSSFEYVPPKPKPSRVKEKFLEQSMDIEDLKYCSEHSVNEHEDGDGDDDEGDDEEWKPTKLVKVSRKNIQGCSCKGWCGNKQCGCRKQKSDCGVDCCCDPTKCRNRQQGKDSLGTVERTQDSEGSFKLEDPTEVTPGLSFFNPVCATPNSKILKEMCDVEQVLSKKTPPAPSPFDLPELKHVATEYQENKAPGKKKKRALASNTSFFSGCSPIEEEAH
# measurement_notes: Inhibition of KIF4 assessed as inhibition ATP hydrolysis by ATPase assay at 20 uM
Items are presented alongside their recorded inhibition.
I only need the number, in %, no unit after it.

Worked examples follow.
• COc1ccc(C(SC[C@H](N)C(=O)O)(c2ccccc2)c2ccccc2)cc1 = 5
• COC(=O)[C@@H](N)CSC(c1ccccc1)(c1ccccc1)c1ccc(OC)cc1 = 4
• N[C@@H](CSC(c1ccccc1)(c1ccccc1)c1ccccc1)C(=O)O = 4

Turning to the following molecule.
The molecule `N[C@@H](CSC(c1ccccc1)(c1ccccc1)c1ccc(C(F)(F)F)cc1)C(=O)O` showed inhibition equal to 3
